The reported numbers originate from PubChem BioAssay (NCI).

# Tested on: HCC-2998 colon
# method: NCI tumour cell line growth inhibition, 48 h
Can you tell me GI50 for the items I'm about to list?

In the examples that follow, each entry is paired with its recorded GI50.
C=C1CC[C@@H]2[C@](C)(COC(C)=O)[C@H](OC(C)=O)CC[C@@]2(C)[C@@H]1CC(Nc1ccc(S(=O)(=O)Nc2cc(C)on2)cc1)C1=CCOC1=O (stereo not given in full) : 2.14 µM
O=C(N=Nc1c(O)[nH]c2ccccc12)c1oc2ccccc2c1CN1CCN(c2ccccc2)CC1 : 6.83 µM
C=C(C)C1CC=C(C)CC1 (stereo not given) : > 100 µM
COc1cccc(-n2cc(-c3nc(Nc4cc(C)[nH]n4)c4ccccc4n3)nn2)c1 : 5.86 µM

Entry CC(=O)c1ccc(Nc2nc(Nc3ccc(F)cc3)nc(Nc3ccc(F)cc3)n2)cc1 has what GI50? 9.95 µM

###

# Tested on: MCF7 breast
# method: NCI tumour cell line growth inhibition, 48 h
TGI below 40 µM gives 0 (no); TGI at or above it gives 1 (yes).

COc1cccc(-n2cc(-c3nc(Nc4cc(C)[nH]n4)c4ccccc4n3)nn2)c1 : 0 (no)
Cn1cc(S(=O)(=O)NC(=O)Nc2ccc(Cl)cc2)c2ccccc21 : 1 (yes)
Cc1nc2c(cc1C(=O)N/N=C/c1ccc([N+](=O)[O-])cc1)c(=O)n(C)c(=O)n2C : 1 (yes)
CC(C)=CCC1=C(OCC(=O)O)C(=O)c2ccccc2C1=O : 1 (yes)
Nc1nc2c(nnn2C2OC(CO)C(O)C2O)c(=O)[nH]1 (stereo unspecified) : 1 (yes)

In plain terms: is recorded TGI at least 40 µM for CCCCCCCCCCC/C=C\C[C@H](O)C/C=C1/C(=O)C=C[C@@H]1C/C=C\CCCC(=O)OC ? 0 (no)

Textbook exercise: given the entry COC(=O)C(Cc1ccccc1)NP(=O)(O)OCC1OC(n2cc(I)c(=O)[nH]c2=O)CC1O (stereo unspecified) , state whether its TGI is greater than or equal to 40 µM. 1 (yes)

Quick check: does CCC(=O)NC(Nc1cccc(F)c1)(C(F)(F)F)C(F)(F)F have TGI greater than or equal to 40 µM? 1 (yes)

###

# Test system: MDA-MB-435
# method: NCI tumour cell line growth inhibition, 48 h
For each of the molecules below, state its TGI.
Numbers only, in µM.

N=C(N)SCc1cc(Cl)cc(Cl)c1O : 38
C=C1CC[C@@H]2[C@](C)(COC(C)=O)[C@H](OC(C)=O)CC[C@@]2(C)[C@@H]1CC(Nc1ccc(S(=O)(=O)Nc2cc(C)on2)cc1)C1=CCOC1=O (some centres undefined) : 4.37
CCCCCc1cc[n+](CC(=O)c2ccc([N+](=O)[O-])cc2)cc1 : 14.6

Please state, for each entry, its recorded TGI.
1. CC[C@@H](C(=O)[C@H](C)[C@H](O)[C@@H](C)[C@H]1O[C@H]([C@@H](CC)C(=O)O)CC[C@H]1C)C1O[C@]2(C=C[C@@H](O)[C@]3(CC[C@@](C)([C@H]4CC[C@](O)(CC)[C@H](C)O4)O3)O2)[C@H](C)C[C@@H]1C (some centres undefined)
2. CCCCCCC/C=C/[C@H]1O[C@]2(O)C(=O)C=C3C[C@@H](O[C@@H]4O[C@H](CO)[C@@H](O)C(O)[C@@H]4O)C[C@@H]3[C@H]2C=C1C (some centres undefined)
3. CC1CCCCN1CC(=O)c1ccc2c(c1)Sc1ccccc1O2 (centres undefined)

1: 2.56; 2: 5.69; 3: 29.8

Go through the list and state TGI for each entry.
1. COC(=O)c1ccc(NCc2c(O)ccc(O)c2Br)cc1Cl
2. CCN(CC)CCOc1ccc(/C=C2\C[C@H]3[C@H]4CC=C5C[C@@H](O)CC[C@]5(C)[C@H]4CC[C@]3(C)[C@H]2O)cc1OC
3. CNc1cc2nc3cc(NC)c(C)cc3cc2cc1C

1. 26.5
2. 16.5
3. 18.3

###

# System: NCI-H226 lung
# method: NCI tumour cell line growth inhibition, 48 h
Could you please report measured TGI for the items listed next?
Answers are plain numbers, in µM.

O=C1C=CC(=Nc2ccccc2)c2ccccc21 : 28.8
NCCCCCCCCCCCn1c2c(c3ccccc3c1=O)C(=O)c1ccccc1-2 : 54.3

Now, please, on to the next compound.
Form field: reported TGI of CN1CC[C@]2(c3cccc(O)c3)CC(=O)/C(=C/c3ccccc3)[C@H]1C2 28.6

###

# System: SNB-19 CNS
# method: NCI tumour cell line growth inhibition, 48 h; in the data active = GI50 below about 0.43 µM; inactive = the rest
Choose the fitting class; nothing outside active, inactive is accepted.

Solved cases below.
CCCCCc1cc[n+](CC(=O)c2ccc([N+](=O)[O-])cc2)cc1 : inactive
CCN(Cc1ccccc1Cl)c1ccc(CO)c(Cl)c1 : inactive
Nc1ccccc1NC(=O)c1ccc(CN2CCC/C(=C\c3ccccn3)C2=O)cc1 : inactive
CN(C)CCC=C1c2ccccc2C(C)(C)c2ccccc21 : inactive
CO[C@]12C=C/C(=C(/C(=O)OCc3cccnc3)C(=O)CCCCCCCC[C@@]3(OC)C=C/C(=C(/C(=O)OCc4cccnc4)C(=O)CCCCCCCC1)O3)O2 : inactive
O=C(N=Nc1c(O)[nH]c2ccccc12)c1oc2ccccc2c1CN1CCN(c2ccccc2)CC1 : inactive
CNc1cc2nc3cc(NC)c(C)cc3cc2cc1C : inactive
N.N.O=P([O-])([O-])CN(CCN(CP(=O)([O-])[O-])CP(=O)([O-])[O-])CP(=O)([O-])[O-].[Pt+2] : inactive
Cc1cccc2nc3cccc(C(=O)NCCNCCNCCNC(=O)c4cccc5nc6cccc(C)c6nc45)c3nc12 : active

Please indicate how the test categorized Clc1cc2c(nn1)Nc1ccccc1S2 . inactive

###

Hi there, I'd appreciate the recorded TGI for every entry that follows.
# System: NCI-H23 lung
# method: NCI tumour cell line growth inhibition, 48 h

c1ccc(CN2CCC3(CC2)SSC2(CCN(Cc4ccccc4)CC2)SS3)cc1 : > 100 µM
Cc1cc(C)nc(SCC(=O)OC2CC(C)CCC2C(C)C)n1 (stereo unspecified) : > 100 µM
c1cc2nnc1SCCCSc1ccc(nn1)SCCCSc1ccc(nn1)SCCCS2 : > 100 µM
COC(=O)/C=C(/C(=O)OC)c1cc2ccc3c([nH]c4ccccc43)c(C)c-2c1 : 24.7 µM
Cc1cccc2nc3cccc(C(=O)NCCNCCNCCNC(=O)c4cccc5nc6cccc(C)c6nc45)c3nc12 : 0.938 µM
COc1cccc2c3ccccc3c3nc[nH]c3c12 : > 100 µM

Provide TGI for all items below, preserving their order.
1. CN(C)CCC(CCN(C)C)=NOC(=O)c1ccccc1
2. NC1CCC(Nc2nc(NCc3cc(Cl)ccc3O)c3ncn(C4CCCC4)c3n2)CC1 (stereo unspecified)
3. Nc1ccccc1NC(=O)c1ccc(CN2CCC/C(=C\c3ccccn3)C2=O)cc1
4. C[C@]12CCC[C@H](O)[C@H]1C[C@H](CO)CC2
5. CN1CC[C@]2(c3cccc(O)c3)CC(=O)/C(=C/c3ccccc3)[C@H]1C2
6. Cc1cc(C)n2c(-c3ccccc3)c(C)cc2n1

> 100 µM
0.478 µM
> 100 µM
> 100 µM
10.8 µM
> 100 µM

For each of the compounds below, note its TGI.
1. Cc1cc(Cl)ccc1NC(=O)CCCC(=O)C1CCC/C1=N\NC(=O)CC#N (stereo unspecified)
2. CCN1C(=O)/C(=C2\SC(c3ccccc3)(c3ccccc3)c3ccccc32)SC1=S
3. Cc1cc(=O)n2c3c(c4c(cc13)c(CO)cc(=O)n4C)OC2
4. Cn1cc(S(=O)(=O)NC(=O)Nc2ccc(Cl)cc2)c2ccccc21

1. > 100 µM
2. > 100 µM
3. 48.1 µM
4. > 100 µM

Give measured TGI for every item shown.
1. CCCCCCC/C=C/[C@H]1O[C@]2(O)C(=O)C=C3C[C@@H](O[C@@H]4O[C@H](CO)[C@@H](O)C(O)[C@@H]4O)C[C@@H]3[C@H]2C=C1C (stereo partly specified)
2. CCCCCc1cc[n+](CC(=O)c2ccc([N+](=O)[O-])cc2)cc1
3. CCC(=O)NC(Nc1cccc(F)c1)(C(F)(F)F)C(F)(F)F
4. O=c1c2ccccc2nc2n1C(c1ccc([N+](=O)[O-])cc1)C2(c1ccccc1)c1ccccc1 (stereo unspecified)
5. CC(C)(CCN=C(N)Nc1ccccn1)c1ccc(C(F)(F)F)cc1

["13 µM", "11.9 µM", "> 100 µM", "> 100 µM", "27.6 µM"]

###

Kindly supply the reported TGI values for the records listed here.
# System: ACHN renal
# method: NCI tumour cell line growth inhibition, 48 h
Numbers only, in µM.

CCCCCCCCCCC/C=C\C[C@H](O)C/C=C1/C(=O)C=C[C@@H]1C/C=C\CCCC(=O)OC : 4.9

Hi there! I need TGI for each item below, if you can.
1. O=C1C=CC(=Nc2ccccc2)c2ccccc21
2. NC(=S)N/N=C/c1ccc(N)cn1
3. CC1(C)CCCC(C)(C2CCC3(C)C2C(O)CC2C4(C)CCC(O)C(C)(C)C4C(O)CC23C)O1 (stereo unspecified)
4. C/C=C(/CCC1NCCC2c3ccccc3NC12)[Si](C)(C)C (stereo unspecified)
5. C=C1C(=O)O[C@@H]2[C@H]1CCC(C)=C1C=CC(=O)[C@]12C
6. COC(=O)c1ccc(NCc2c(O)ccc(O)c2Br)cc1Cl
7. Cc1ccc(/C=C/C(=N/N=C(N)N)c2ccccc2)cc1
8. CCCC[n+]1c(/C=C\c2c(OC)cc(OC)cc2OC)ccc2ccccc21

[27.4, 7.65, 24.5, 27.2, 30, 30.6, 17.4, 11.8]
